B1: PLAGL1 (parent)
chain: LELGSTEVLLDHLKAHAEEKPPSG

Variants of: B1
Assay: protein stability index of a GFP-peptide fusion (GPS, HEK-293T) (PSI 1-6); higher = more stable;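 further: lentivirally expressed fusions sorted by FACS into six bins by GFP to DsRed ratio, PSI derived from sequencing read proportions per bin multiplied by bin number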
Details: c terminus: a fixed tail appended
ATTRIBUTE_MEASURED: protein stability index

K14R = 3.5
G4H = 3.83
L10R = 5.62
D11T = 3.07
L13K = 5.68
A15Y = 4.04
G24Q = 4.63
A17N = 4.7
E2W = 2
G4S = 4.14
E18V = 2.71
S23H = 4.17
K20Y = 3.6
E19D = 4.48
A15G = 4.29
L3E = 5.8
E18D = 4.55
S23E = 4.89
E19V = 3.27
V8Q = 4.75
V8R = 4.96
G24M = 3.61
S5G = 4.56
L3M = 4.09
K20V = 4.41
E2D = 4.03
K20G = 4.22
L1C = 4.61
L1M = 4.59
K14Q = 4.59
L1N = 5.35
H12N = 5.15
E19P = 4.28
P22G = 4.4
L1S = 4.98
L13N = 5.64
G24S = 4.46
A17F = 2.97
T6W = 2.89
A17L = 3.21
D11V = 1.86
K14M = 3.6
L9C = 5.04
D11C = 2.36
A15F = 4.18
L3K = 5.19
A15N = 4.73
L9A = 5.08
L10F = 5.3
A15Q = 4.63
K20Q = 3.56
P22I = 4.06
S23A = 3.76
E19Y = 3.32
S5Y = 3.33
E7R = 4.81
S23I = 4.1
L1A = 5.43
A15D = 4.8
V8F = 3.85
L13V = 4.36
V8H = 4.55
D11F = 1.77
E19S = 3.65
K20C = 4
G4M = 2.25
E7N = 4.67
L3F = 4.33
E7H = 4.39
K20E = 5.18
L13E = 5.3
H12A = 3.98
P22Q = 4.85
V8S = 4.87
E2A = 3.53
E7F = 3.86
H12G = 5.16
P22D = 4.88
L13W = 3.78
V8C = 4.41
E2T = 4.16
E2F = 2.15
G4F = 2.59
E2G = 4.81
T6F = 3.62
A17E = 4.67
L10P = 5.36
G24R = 4.21
S5V = 3.79
K20T = 4.86
K14F = 3.5
